Quick list: EC50 per entry.
Test system: Wnt activity (Sp5-Luc reporter, Wnt-responsive promoter) in SW480 colon carcinoma cells
Experiment: Wnt activity screening assay: Sp5-Luc reporter gene assay in SW480 cells
Type: cell-based
Conditions: Homo sapiens, overnight incubation, 10-point curve starting from 10 μM

SMILES STRUCTURE	EC50 (µM)
O=C(Nc1cncc(-c2ccc3[nH]nc(-c4nc5c(N6CCCCC6)cccc5[nH]4)c3n2)c1)C1CC1	3.73
CN1CCN(c2cccc3[nH]c(-c4n[nH]c5ccc(-c6cncc(NC(=O)C(F)(F)F)c6)nc45)nc23)CC1	3.99
COc1cccc(-c2cccc3[nH]c(-c4n[nH]c5ccc(-c6cncc(NC(=O)Cc7ccccc7)c6)nc45)nc23)c1	3.25
CN(C)CCNc1cc(F)cc(-c2cccc3[nH]c(-c4n[nH]c5ccc(-c6cnccn6)nc45)nc23)c1	3.96
O=C(Nc1cncc(-c2ccc3[nH]nc(-c4nc5c(-c6ccc(Cl)s6)cccc5[nH]4)c3n2)c1)C1CCC1	3.3
CCNCc1cncc(-c2ccc3[nH]nc(-c4nc5c(-c6ccoc6)cccc5[nH]4)c3n2)c1	3.25
Cc1ccc(-c2cccc3[nH]c(-c4n[nH]c5ccc(C6=CCNCC6)nc45)nc23)s1	1.01

---

Tested on: Wnt activity (Sp5-Luc reporter, Wnt-responsive promoter) in SW480 colon carcinoma cells
Experiment: Wnt activity screening assay: Sp5-Luc reporter gene assay in SW480 cells
Type: cell-based
Conditions: Homo sapiens, overnight incubation, 10-point curve starting from 10 μM
pEC50: −log10 of the molar value.

COMPOUND	TARGET DESC	pEC50
c1ccc2[nH]c(-c3n[nH]c4ccc(-c5cncc(OC6CCNCC6)c5)nc34)nc2c1 [Compound 656]	Wnt activity (Sp5-Luc reporter, Wnt-responsive promoter) in SW480 colon carcinoma cells	< 5.00
CN1CCN(c2cccc3[nH]c(-c4n[nH]c5ccc(-c6cnccn6)nc45)nc23)CC1 [Compound 648]	Wnt activity (Sp5-Luc reporter, Wnt-responsive promoter) in SW480 colon carcinoma cells	< 5.00
CC(C)(C)CC(=O)Nc1cncc(-c2ccc3[nH]nc(-c4nc5c(-c6ccccc6F)cccc5[nH]4)c3n2)c1 [Compound 72]	Wnt activity (Sp5-Luc reporter, Wnt-responsive promoter) in SW480 colon carcinoma cells	< 5.00
O=C(Nc1cncc(-c2ccc3[nH]nc(-c4nc5c(-c6ccccc6F)cccc5[nH]4)c3n2)c1)C1CCCC1 [Compound 78]	Wnt activity (Sp5-Luc reporter, Wnt-responsive promoter) in SW480 colon carcinoma cells	< 5.00
CN1CCN(c2cccc3[nH]c(-c4n[nH]c5ccc(-c6cncc(N)c6)nc45)nc23)CC1 [Compound 227]	Wnt activity (Sp5-Luc reporter, Wnt-responsive promoter) in SW480 colon carcinoma cells	< 5.00
O=C(Cc1ccccc1)Nc1cncc(-c2ccc3[nH]nc(-c4nc5c(-c6ccncc6)cccc5[nH]4)c3n2)c1 [Compound 122]	Wnt activity (Sp5-Luc reporter, Wnt-responsive promoter) in SW480 colon carcinoma cells	< 5.00
CS(=O)(=O)NCc1cc(F)cc(-c2cccc3[nH]c(-c4n[nH]c5ccc(-c6cncc(NC(=O)CC7CCNCC7)c6)nc45)nc23)c1 [Compound 769]	Wnt activity (Sp5-Luc reporter, Wnt-responsive promoter) in SW480 colon carcinoma cells	< 5.00
Cc1cn(-c2cccc3[nH]c(-c4n[nH]c5ccc(C6=CCNCC6)nc45)nc23)cn1 [Compound 618]	Wnt activity (Sp5-Luc reporter, Wnt-responsive promoter) in SW480 colon carcinoma cells	< 5.00
CC(C)C(=O)Nc1cncc(-c2ccc3[nH]nc(-c4nc5c(N6CCN(C)CC6)cccc5[nH]4)c3n2)c1 [Compound 233]	Wnt activity (Sp5-Luc reporter, Wnt-responsive promoter) in SW480 colon carcinoma cells	< 5.00
O=C(Nc1cncc(-c2ccc3[nH]nc(-c4nc5c(-c6cccc(F)c6)cccc5[nH]4)c3n2)c1)C1CC1 [Compound 20]	Wnt activity (Sp5-Luc reporter, Wnt-responsive promoter) in SW480 colon carcinoma cells	5.97
CC(C)C(=O)Nc1cncc(-c2ccc3[nH]nc(-c4nc5c(-c6cccnc6)cccc5[nH]4)c3n2)c1 [Compound 93]	Wnt activity (Sp5-Luc reporter, Wnt-responsive promoter) in SW480 colon carcinoma cells	5.42
Fc1cccc(-c2cccc3[nH]c(-c4n[nH]c5ccc(C6CCNCC6)nc45)nc23)c1 [Compound 505]	Wnt activity (Sp5-Luc reporter, Wnt-responsive promoter) in SW480 colon carcinoma cells	5.50
CC(C)Nc1cncc(-c2ccc3[nH]nc(-c4nc5c(-c6cccnc6)cccc5[nH]4)c3n2)c1 [Compound 96]	Wnt activity (Sp5-Luc reporter, Wnt-responsive promoter) in SW480 colon carcinoma cells	5.59
Cc1cn(-c2cccc3[nH]c(-c4n[nH]c5ccc(-c6cncc(OCCN(C)C)c6)nc45)nc23)cn1 [Compound 627]	Wnt activity (Sp5-Luc reporter, Wnt-responsive promoter) in SW480 colon carcinoma cells	< 5.00
Oc1cncc(-c2ccc3[nH]nc(-c4nc5ccccc5[nH]4)c3n2)c1 [Compound 661]	Wnt activity (Sp5-Luc reporter, Wnt-responsive promoter) in SW480 colon carcinoma cells	< 5.00
c1cc(-c2ccncc2)c2nc(-c3n[nH]c4ccc(-c5cncc(OC6CCNCC6)c5)nc34)[nH]c2c1 [Compound 576]	Wnt activity (Sp5-Luc reporter, Wnt-responsive promoter) in SW480 colon carcinoma cells	< 5.00
O=C(Nc1cncc(-c2ccc3[nH]nc(-c4nc5c(-c6ccncc6)cccc5[nH]4)c3n2)c1)C1CCCCC1 [Compound 135]	Wnt activity (Sp5-Luc reporter, Wnt-responsive promoter) in SW480 colon carcinoma cells	< 5.00
